Conditions: Table S35; I = 0.10 M KCl, t = 25°C
QUANTITY_MEASURED: Log bMnL

Sample c1ccc(CN(Cc2ccccn2)Cc2ccccn2)nc1 — what was its Log bMnL?
5.24(2)

Sample COCCN(Cc1ccccn1)Cc1ccccn1 — what was its Log bMnL?
3.71(2)

Sample COCCN(CCOC)Cc1ccccn1 — what was its Log bMnL?
2.32(2)

Sample OCCN(Cc1ccccn1)Cc1ccccn1 — what was its Log bMnL?
4.12(1)

* * *

Conditions: ligand 0.001 M (TMPA) or 0.01 M, MnCl2 0.001 M; estimated from complex stability studies
QUANTITY_MEASURED: % Complex (complex formation under cyclic voltammetry conditions) (%)
Only the number, expressed in %, is required.

Sample OCCN(CCO)Cc1ccccn1 — what was its % Complex (complex formation under cyclic voltammetry conditions)?
66

Sample c1ccc(CN(Cc2ccccn2)Cc2ccccn2)nc1 — what was its % Complex (complex formation under cyclic voltammetry conditions)?
93

Sample COCCN(Cc1ccccn1)Cc1ccccn1 — what was its % Complex (complex formation under cyclic voltammetry conditions)?
97

Sample OCCN(Cc1ccccn1)Cc1ccccn1 — what was its % Complex (complex formation under cyclic voltammetry conditions)?
98

Sample COCCN(CCOC)Cc1ccccn1 — what was its % Complex (complex formation under cyclic voltammetry conditions)?
61

* * *

Assay: Potentiometric titration of the acidified ligands (protonation constants)
Conditions: I = 0.10 M KCl, t = 25 °C
QUANTITY_MEASURED: Log βLH1 (protonation constant of the ligand)

Sample OCCN(CCO)Cc1ccccn1 — what was its Log βLH1 (protonation constant of the ligand)?
6.78(1)

Sample OCCN(Cc1ccccn1)Cc1ccccn1 — what was its Log βLH1 (protonation constant of the ligand)?
6.10(1)

Sample COCCN(Cc1ccccn1)Cc1ccccn1 — what was its Log βLH1 (protonation constant of the ligand)?
6.19(1)

Sample c1ccc(CN(Cc2ccccn2)Cc2ccccn2)nc1 — what was its Log βLH1 (protonation constant of the ligand)?
6.01(1)

Sample COCCN(CCOC)Cc1ccccn1 — what was its Log βLH1 (protonation constant of the ligand)?
6.90(2)

* * *

Details: Table S37; ligand 0.001 M (TMPA, DPEA, DPMEA) or 0.01 M (PDEA, PDMEA), MnCl2 0.1 µM; estimated from stability studies
QUANTITY_MEASURED: % Complex (McCord-Fridovich assays)

Sample OCCN(Cc1ccccn1)Cc1ccccn1 — what was its % Complex (McCord-Fridovich assays)?
92%

Sample COCCN(CCOC)Cc1ccccn1 — what was its % Complex (McCord-Fridovich assays)?
61%

Sample OCCN(CCO)Cc1ccccn1 — what was its % Complex (McCord-Fridovich assays)?
66%

Sample COCCN(Cc1ccccn1)Cc1ccccn1 — what was its % Complex (McCord-Fridovich assays)?
80%

Sample c1ccc(CN(Cc2ccccn2)Cc2ccccn2)nc1 — what was its % Complex (McCord-Fridovich assays)?
99%

* * *

Provide the recorded pIC50 for the entries that follow.
System: superoxide ion
Assay: McCord-Fridovich assay (SOD activity, inhibition of ferricytochrome c reduction by superoxide ion)
Assay type: biochemical
Conditions: HEPES buffer, pH 7.5; measured IC50 corrected for expected percent complex formation; read-out: apparent IC50
// field semantics: pIC50 = negative decimal log of concentration (mol/L)

Missing value: pIC50, superoxide ion, entry c1ccc(CN(Cc2ccccn2)Cc2ccccn2)nc1 . Fill in?
6.52

Missing value: pIC50, superoxide ion, entry COCCN(CCOC)Cc1ccccn1 . Fill in?
6.10

Missing value: pIC50, superoxide ion, entry OCCN(CCO)Cc1ccccn1 . Fill in?
7.15

Missing value: pIC50, superoxide ion, entry COCCN(Cc1ccccn1)Cc1ccccn1 . Fill in?
6.32

Missing value: pIC50, superoxide ion, entry OCCN(Cc1ccccn1)Cc1ccccn1 . Fill in?
6.85
